Every entry's value here was drawn from patent US20230151068A1.

molecular target: biotinylated His-Avi-TEAD (194-411) (UniProt P28347); test: SSM screen, enrichment after two rounds of sorting
Classes by enrichment score: LOW: < -9; MID: ≥ -9 and < 0.08; HIGH: ≥ 0.08

(Q) Please classify: GSPDEYIERMKECCKKGDIQCCLRYFEESGDPNVMLICLFCP (designed binder) [A08M variant of SEQ ID NO: 1]
(A) LOW

(Q) Please classify: GSPDEYIERAKECCKKGDDQCCLRYFEESGDPNVMLICLFCP (designed binder) [I17D variant of SEQ ID NO: 1]
(A) LOW

(Q) Please classify: GSPDEYIEKAKECCKKGDIQCCLRYFEESGDPNVMLICLFCP (designed binder) [R07K variant of SEQ ID NO: 1]
(A) HIGH

(Q) Please classify: GSPDEYIERAKECCKKGDIYCCLRYFEESGDPNVMLICLFCP (designed binder) [Q18Y variant of SEQ ID NO: 1]
(A) MID

(Q) Please classify: GSPDKYIERAKECCKKGDIQCCLRYFEESGDPNVMLICLFCP (designed binder) [E03K variant of SEQ ID NO: 1]
(A) MID

(Q) Please classify: GSPDEYIERAKECCKKGDIKCCLRYFEESGDPNVMLICLFCP (designed binder) [Q18K variant of SEQ ID NO: 1]
(A) MID

(Q) Please classify: GSPDEYIERAKECCAKGDIQCCLRYFEESGDPNVMLICLFCP (designed binder) [K13A variant of SEQ ID NO: 1]
(A) HIGH

(Q) Please classify: GSPDEYIERAKECCKKQDIQCCLRYFEESGDPNVMLICLFCP (designed binder) [G15Q variant of SEQ ID NO: 1]
(A) HIGH

(Q) Please classify: GSPDEYIERAKECCKKGGIQCCLRYFEESGDPNVMLICLFCP (designed binder) [D16G variant of SEQ ID NO: 1]
(A) LOW

(Q) Please classify: GSPDEYIERAKECCKKGNIQCCLRYFEESGDPNVMLICLFCP (designed binder) [D16N variant of SEQ ID NO: 1]
(A) MID

(Q) Please classify: GSPDEYIERAKECCKKGDIWCCLRYFEESGDPNVMLICLFCP (designed binder) [Q18W variant of SEQ ID NO: 1]
(A) LOW
